Kd by entry:
B1: scFv; the commonest letter at each place (parent)
chain 1: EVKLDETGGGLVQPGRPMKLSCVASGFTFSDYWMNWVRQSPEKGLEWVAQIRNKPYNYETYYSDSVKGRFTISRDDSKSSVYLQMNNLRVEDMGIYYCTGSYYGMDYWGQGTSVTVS
chain 2: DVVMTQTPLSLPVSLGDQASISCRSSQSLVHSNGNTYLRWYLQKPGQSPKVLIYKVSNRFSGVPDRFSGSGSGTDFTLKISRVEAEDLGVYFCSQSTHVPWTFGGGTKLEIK

variants of: B1; assay: Kd (Tite-Seq); conditions: with fluorescein; format: scFv 4-4-20, heavy + light
Give the quantity in nM, number only.

As a guide, the following entries are already answered.
>  <Mutation key>
chain 1 Y32N V37G

>  <Recorded measurement>
11.3

$$$$
>  <Mutation key>
chain 1 S30Q D31H

>  <Recorded measurement>
1.58

$$$$
>  <Mutation key>
chain 1 Y103I M105W

>  <Recorded measurement>
14.6

$$$$

The reported value for chain 1 M105F in terms of Kd is 945

For chain 1 M34A the variant record lists Kd as 8.26

For this variant ( chain 1 Y102L ), measured Kd is 610
